# credit: PubChem BioAssay AID463173

Tested on: Wild type
measurement-description: S. aureus survival, RN4220 and DeltatarO strains – OD600, teichoic acid synthesis inhibitors, primary screen (AID 463173)
test-context: S. aureus RN4220 wild type/DeltatarO growth, OD600, 18 h, stronger effect = lower value, screened at 18.75 µg/mL (by protocol)
Among all 52,000 compounds or so, about 1,700 (3.3%) were called active. The full list was thinned out, with actives kept by preference.

[
  {
    "compound": "CC(C)c1ccc(NC(=O)C(Cc2ccccc2)n2cccc2)cc1 (centres undefined)",
    "units": "%",
    "survival": 13
  },
  {
    "compound": "COc1ccc(-c2cn3c(n2)sc2cc(C(=O)NC4CCCc5ccccc54)ccc23)cc1 (centres undefined)",
    "units": "%",
    "survival": 78
  },
  {
    "compound": "CCOc1ccccc1N1CC(c2nc3ccccc3n2CCCCOc2ccccc2)CC1=O (centres undefined)",
    "units": "%",
    "survival": 73
  },
  {
    "compound": "N#Cc1c(N2CCOCC2)nc(N2CCOCC2)c2c1CCN(Cc1ccccc1)C2",
    "units": "%",
    "survival": 112
  },
  {
    "compound": "COc1ccc(N2CC(NC(=O)CCCc3ccccc3)CC2=O)cc1 (centres undefined)",
    "units": "%",
    "survival": 0
  },
  {
    "compound": "Cc1nnc(N2C(=O)c3oc4ccccc4c(=O)c3C2c2ccc(F)cc2)s1 (centres undefined)",
    "units": "%",
    "survival": 79
  },
  {
    "compound": "COc1ccc(N2CC(NC(=O)c3ccc(S(=O)(=O)N4CCCC4)cc3)CC2=O)cc1 (centres undefined)",
    "units": "%",
    "survival": 118
  },
  {
    "compound": "CC(=O)Nc1ccc(NC(=O)C(Cc2ccccc2)N2Cc3ccccc3C2=O)cc1 (centres undefined)",
    "units": "%",
    "survival": 72
  },
  {
    "compound": "CC1=CC(C)(C)Nc2ccc(OC(=O)c3ccco3)cc21",
    "units": "%",
    "survival": 125
  },
  {
    "compound": "COc1cccc(N2CC(NC(=O)CCCc3ccccc3)CC2=O)c1 (centres undefined)",
    "units": "%",
    "survival": 88
  },
  {
    "compound": "Cc1cccc(CC(=O)NC2CC(=O)N(c3ccccc3)C2)c1 (centres undefined)",
    "units": "%",
    "survival": -6
  },
  {
    "compound": "CC(C)c1ccc(NC(=O)c2ccc3oc(=O)c(S(=O)(=O)c4ccc(F)cc4)cc3c2)cc1",
    "units": "%",
    "survival": 70
  },
  {
    "compound": "Cc1ccc(NC(=O)C(Cc2ccccc2)n2cccc2)cc1 (centres undefined)",
    "units": "%",
    "survival": 96
  },
  {
    "compound": "O=C(Nc1ccccc1F)C(Cc1ccccc1)n1cccc1 (centres undefined)",
    "units": "%",
    "survival": 85
  }
]

* * *

Test system: Wild type
measurement-description: S. aureus survival, RN4220 and DeltatarO strains – OD600, teichoic acid synthesis inhibitors, primary screen (AID 463173)
test-context: S. aureus RN4220 wild type/DeltatarO growth, OD600, 18 h, stronger effect = lower value, screened at 18.75 µg/mL (by protocol)
Hit rate of the full screen: of about 52,000 compounds, about 1,700 (3.3%) were called active. Only a selection was taken, and actives are over-represented in it overall.

[
  {
    "smiles-representation": "O=C(CN1CCC(NC(=O)C2CCCCC2)CC1)Nc1cccc(F)c1",
    "survival, %": 111
  },
  {
    "smiles-representation": "O=C(c1ccc2c(c1)N(Cc1ccc(Cl)cc1)C(=O)c1ccccc1S2(=O)=O)N1CCc2ccccc21",
    "survival, %": 147
  },
  {
    "smiles-representation": "Cc1cncn1CCc1nc2c3ccccc3nc(SCC(=O)Nc3cccc(Cl)c3)n2n1",
    "survival, %": 80
  },
  {
    "smiles-representation": "Cc1ccc(CCNC(=O)CCSCc2ccccc2Cl)cc1",
    "survival, %": -3
  },
  {
    "smiles-representation": "Cc1ccc(NC(=O)NCC2CCN(Cc3cccc(Cl)c3)CC2)cc1Cl",
    "survival, %": -6
  },
  {
    "smiles-representation": "Cc1ccc(CCNC(=O)c2ccc(CSCc3ccccc3Cl)o2)cc1",
    "survival, %": 72
  },
  {
    "smiles-representation": "COc1ccc(CCNC(=O)CCSCc2ccccc2Cl)cc1OC",
    "survival, %": 88
  },
  {
    "smiles-representation": "Cc1ccc(CCNC(=O)c2ccc(CSCc3ccccc3C)o2)cc1",
    "survival, %": 0
  },
  {
    "smiles-representation": "CCOC(=O)CNC(=O)c1cc2c(=O)oc3ccccc3c2s1",
    "survival, %": 146
  },
  {
    "smiles-representation": "COCCCNC(=O)CN1C(=O)COc2ccc(S(=O)(=O)N3CCCCCC3)cc21",
    "survival, %": 77
  }
]
